# Measurement target: TLR7 (Homo sapiens)
# Sequence (Q9NYK1 27-1049): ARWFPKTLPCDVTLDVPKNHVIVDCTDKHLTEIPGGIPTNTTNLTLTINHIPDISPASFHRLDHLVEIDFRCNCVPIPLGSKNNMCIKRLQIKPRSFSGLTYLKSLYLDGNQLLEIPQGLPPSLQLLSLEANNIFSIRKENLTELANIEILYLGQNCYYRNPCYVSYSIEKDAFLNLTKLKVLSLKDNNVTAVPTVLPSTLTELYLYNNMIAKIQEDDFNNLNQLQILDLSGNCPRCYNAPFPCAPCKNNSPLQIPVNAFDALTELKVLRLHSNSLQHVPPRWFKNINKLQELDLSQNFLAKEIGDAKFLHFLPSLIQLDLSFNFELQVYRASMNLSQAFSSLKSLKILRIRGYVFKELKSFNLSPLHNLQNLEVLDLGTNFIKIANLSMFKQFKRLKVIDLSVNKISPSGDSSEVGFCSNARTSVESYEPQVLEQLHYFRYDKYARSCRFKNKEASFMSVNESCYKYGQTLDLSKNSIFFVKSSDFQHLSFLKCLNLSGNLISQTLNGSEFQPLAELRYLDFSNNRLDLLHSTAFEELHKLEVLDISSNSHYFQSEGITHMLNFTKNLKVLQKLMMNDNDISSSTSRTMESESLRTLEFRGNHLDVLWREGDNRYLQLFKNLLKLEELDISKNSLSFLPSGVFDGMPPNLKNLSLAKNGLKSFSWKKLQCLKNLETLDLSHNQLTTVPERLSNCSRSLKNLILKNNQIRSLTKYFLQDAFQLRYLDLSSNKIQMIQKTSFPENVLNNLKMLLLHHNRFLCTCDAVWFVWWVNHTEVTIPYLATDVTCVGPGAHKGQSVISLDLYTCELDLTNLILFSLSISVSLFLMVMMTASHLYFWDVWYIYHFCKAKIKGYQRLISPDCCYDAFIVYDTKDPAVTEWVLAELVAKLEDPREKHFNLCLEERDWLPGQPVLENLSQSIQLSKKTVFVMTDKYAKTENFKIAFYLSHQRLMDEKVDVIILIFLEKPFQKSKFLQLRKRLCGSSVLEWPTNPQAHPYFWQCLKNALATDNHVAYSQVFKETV
# Procedure summary: HEK/293 TLR7 Cell Assay
# Cond: TLR7/NFKb HEK cells, R848 agonist 10 uM final concentration, Steady-Glo readout; read-out: TLR7 potency
pIC50: −log10 of the molar value.
Catalogue of pIC50 values

[[record]]
compound = "C[C@H]1C[C@@H](NC(=O)Cc2cnn(C)c2)CN(c2cc(F)c(C#N)c3ncccc23)C1 [Example 58]"
reading = "< 6.82"

[[record]]
compound = "N#Cc1ccc(N2C[C@H](NC(=O)CC3CCNCC3F)C[C@H](C(F)(F)F)C2)c2cccnc12 (stereo partly shown) [Example 138]"
reading = "> 7.12"

[[record]]
compound = "CCOc1ncc(N2C[C@H](N)C[C@H](C(F)(F)F)C2)c2cccnc12 [Example 10]"
reading = "< 6.82"


Query C[C@@H]1CN(c2cnc(C#N)c3ncccc23)C[C@H](CN2CCS(=O)(=O)CC2)O1 [Example 376] yields pIC50 of < 6.82

Just for reference, patent US20210300940A1 is where these values come from.
